- target: T1, recombinant TROP2 protein (UniProt P09758 27-274, limits assumed)
- T1 construct: also called rProtein
- T1 sequence (looked up): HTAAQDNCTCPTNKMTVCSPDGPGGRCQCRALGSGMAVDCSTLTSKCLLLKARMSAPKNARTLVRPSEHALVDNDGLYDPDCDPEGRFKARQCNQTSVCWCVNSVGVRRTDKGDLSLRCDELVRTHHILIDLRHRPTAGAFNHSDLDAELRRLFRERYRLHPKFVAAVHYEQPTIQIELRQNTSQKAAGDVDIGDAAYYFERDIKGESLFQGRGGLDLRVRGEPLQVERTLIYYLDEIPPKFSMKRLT
- measurement description: ELISA titration, antibody with varying concentrations of recombinant TROP2 protein
Entries and their measured rProtein ELISA Affinity follow.

[[record]]
binder = "TROP2-Ab7 (antibody, V domains shown, Monoclonal antibody from a hybridoma clone (V regions amplified with mouse Ig primers)) VH: QVQLQQSGPEVVKPGASVKMSCKASGYRFTDYVINWVKQRSGQGLEWIGQIYPGSDTFHYNKNFKGKATLTADKSSNTAYMQLNSLTSEDSAVYFCARFFEGFAYWGQGTLVTVSA VL: DIKMTQSPSSMYAFLGERVTITCKASQGINNYLSWFHLKPGKSPKSLIYRANRLVDGVPSRFSGSGSGQDYSLTISSLDYEDVGIYYCLQYDEFPLTFGGGTKLELK"
measured_value = "0.1 nM"

[[record]]
binder = "TROP2-Ab51 (antibody, V domains shown, Monoclonal antibody from a hybridoma clone) VH: QVQLQQSGPEVVKPGASVKMSCRASGYRFTDYVINWVKQRTGQGLEWIGQIYPGSDSFHYNKNFKGKATLTADKSSNTAYMQLNSLTSEDSAVYFCARFFEGFAYWGQGTLVTVSA VL: DIKMTQSPSSMYAFLGERVTITCKASQGINNYLSWFQLKPGKSPKSLIYRANRLVDGVPSRFSGSGSGQDYSLTISSLDYEDMGIYYCLQYDEFPLTFGGGTKLELK"
measured_value = "< 0.1 nM"

[[record]]
binder = "TROP2-Ab8 (antibody, V domains shown, Monoclonal antibody from a hybridoma clone) VH: QVQLQQSGPEVVKPGASVKMSCKASGYRFTDYVINWVKQRTGQGLEWIGQIYPGSDSFHYNKNFKGKATLTADKSSNTAYMQLNSLTSEDSAVYFCARFFEGLAYWGQGTLVTVSA VL: DIKMTQSPSSMYAFLGERVTITCKASQGINNYLSWFQLKPGKSPKSLIYRANRLVDGVPSRFSGSGSGQDYSLTISSLDYEDMGIYYCLQYDEFPLTFGGGTKLELK"
measured_value = "< 0.1 nM"


Now consider the entry below.
Query :: Determine its reported rProtein ELISA Affinity: TROP2-Ab46 (antibody, V domains shown, Monoclonal antibody from a hybridoma clone) VH: QVQLQQPGAELVRPGASVRLSCKSSGYTFTSYWINWVKQRPGQGLEWIGNIFPSHSYTNYNQKFRDKATLTVDKSSSTAYLQLSSPTSDDSAVYYCTRGSGFDYWGQGTALTVSS VL: DILLTQSPAILSVSPGERVSFSCRASQNIGTSIHWYQQRTNGSPRLLISYASESISGIPSRFSGSGSGTDFTLIINSVESEDIADYYCQHSYSWPFTFGSGTKLEVK
Result :: < 0.1 nM
